- System: DIV17
- TEST PROTOCOL: qHTS profiling for inhibitors of Plasmodium falciparum proliferation (AID 504749); note: nearly all actives have a fitted effect of over 60% in size
- SETUP CONDITIONS: P. falciparum in erythrocytes, SYBR Green DNA, 72 h; series mostly up to 28.7 µM
Inconclusive results are not listed. Activity calls are given as the source filed them. Calls come from the whole dose curve; as a rule, active = well fitted inhibition curve with a large enough effect; inconclusive = small, poorly fitted or top-dose-only effect; inactive = flat fitted curve, though single readings scatter.
Pick one and only one: yes (active), no (inactive)

[
  {
    "COMPOUND": "C[CH2][Hg][S]c1ccccc1C(=O)O",
    "CATEGORY": "yes"
  },
  {
    "COMPOUND": "CN1CCCC(=C(c2cccs2)c2cccs2)C1",
    "CATEGORY": "yes"
  },
  {
    "COMPOUND": "C=CCN1CCC23c4c5ccc(O)c4O[C@H]2C(=O)CC[C@@]3(O)C1C5 (some centres not stated)",
    "CATEGORY": "no"
  },
  {
    "COMPOUND": "O=C(NC(=O)c1c(F)cccc1F)Nc1ccc(Cl)c(Oc2ncc(C(F)(F)F)cc2Cl)c1",
    "CATEGORY": "no"
  },
  {
    "COMPOUND": "C[C@@H](Cc1ccccc1)NCCC(c1ccccc1)c1ccccc1",
    "CATEGORY": "yes"
  },
  {
    "COMPOUND": "[N-]=[N+]=CC(=O)OCC(N)C(=O)O (configuration not stated)",
    "CATEGORY": "no"
  }
]

Please find the next compound below.
Problem: What call does the record list for `CCOC(=O)c1ccccc1C(=O)OCC` ?
Solution: no

###

- TEST PROTOCOL: Cell Viability - SK-N-SH (AID 435);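 note: compound exposure lasted 40 h at 37 °C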
- SETUP CONDITIONS: SK-N-SH neuroblastoma cell viability qHTS
Records with an inconclusive call do not appear. Activity calls are given as the source filed them. The call rests on the fitted dose curve.
Outcome field: choose from active, inactive

Field: example entries. Status: answers known.
[
  {
    "COMPOUND": "ClC=C(Cl)Cl",
    "CATEGORY": "inactive"
  },
  {
    "COMPOUND": "O=C1CCO1",
    "CATEGORY": "inactive"
  },
  {
    "COMPOUND": "COc1ccc2c(c1OC)C(=O)OC2C1c2cc3c(cc2CCN1C)OCO3 (stereo unspecified)",
    "CATEGORY": "inactive"
  },
  {
    "COMPOUND": "ClCC1CO1 (stereo unspecified)",
    "CATEGORY": "inactive"
  },
  {
    "COMPOUND": "O=C/C=C/c1ccccc1",
    "CATEGORY": "inactive"
  },
  {
    "COMPOUND": "CC(C)CCON=O",
    "CATEGORY": "inactive"
  }
]

API: the following record is the query input.
Problem: Assay outcome for `O=[N+]([O-])c1ccccc1` : what was it?
Solution: inactive

###

// max response lookup, one value per entry
- Tested on: KB-3-1
- TEST PROTOCOL: Cytotoxic Profiling of Annotated Libraries Using Quantitative High-Throughput Screening (AID 1296008); note: % is set by controls: 0 for no effect and ±100 for the full control effect; nearly all actives have a fitted effect of over 60% in size
- SETUP CONDITIONS: Five cell lines viability, CellTiter-Glo ATP luminescence, 48-72 h; hits give low values
Results filed as inconclusive are left out. Activity calls are given as the source filed them. Calls follow the shape of the dose curve; as a rule, active = well fitted inhibition curve with a large enough effect; inconclusive = small, poorly fitted or top-dose-only effect; inactive = flat fitted curve, though single readings scatter.

[
  {
    "COMPOUND": "Oc1cc(Cl)c(Cl)cc1Cl",
    "MEASURED ON": "KB-3-1",
    "OBSERVED MEASUREMENT": "0.226% (inactive)"
  },
  {
    "COMPOUND": "Clc1ccc(C(Cn2ccnc2)OCc2csc3c(Cl)cccc23)c(Cl)c1 (configuration not stated)",
    "MEASURED ON": "KB-3-1",
    "OBSERVED MEASUREMENT": "-3.27% (inactive)"
  },
  {
    "COMPOUND": "O=C1CCO1",
    "MEASURED ON": "KB-3-1",
    "OBSERVED MEASUREMENT": "-17.3% (inactive)"
  },
  {
    "COMPOUND": "CC(=O)OCC(=O)[C@H]1CC[C@H]2[C@@H]3CC[C@H]4C[C@H](O)CC[C@]4(C)[C@H]3C(=O)C[C@]12C",
    "MEASURED ON": "KB-3-1",
    "OBSERVED MEASUREMENT": "2.82% (inactive)"
  },
  {
    "COMPOUND": "CCN(CC)CCO[C@H]1CC[C@@]2(C)C(=CC[C@@H]3[C@@H]2CC[C@]2(C)C(=O)CC[C@@H]32)C1",
    "MEASURED ON": "KB-3-1",
    "OBSERVED MEASUREMENT": "-11.5% (inactive)"
  },
  {
    "COMPOUND": "CCCCCl",
    "MEASURED ON": "KB-3-1",
    "OBSERVED MEASUREMENT": "-7.35% (inactive)"
  }
]

Entry under test: `CCN1C[C@]2(OC(=O)c3ccccc3NC(C)=O)CC[C@H](OC)[C@@]34[C@@H]2C[C@@H]([C@@H]13)[C@@]1(O)C[C@H](OC)[C@H]2C[C@@H]4[C@]1(O)[C@H]2OC` . Its max response was 6.81% (inactive)

According to the records, this compound `[S]=[Sb](=[S])[S][Sb](=[S])=[S]` displays max response of 2.26% (inactive)

For this compound ( `CCC1(c2ccccc2)C(=O)NC(=O)NC1=O` ), measured max response is 3.43% (inactive)

###

- MEASURED ON: Voltage-gated inwardly rectifying potassium channel KCNH2 (Homo sapiens) (UniProt Q12809)
- Sequence (Q12809 whole entry, looked up): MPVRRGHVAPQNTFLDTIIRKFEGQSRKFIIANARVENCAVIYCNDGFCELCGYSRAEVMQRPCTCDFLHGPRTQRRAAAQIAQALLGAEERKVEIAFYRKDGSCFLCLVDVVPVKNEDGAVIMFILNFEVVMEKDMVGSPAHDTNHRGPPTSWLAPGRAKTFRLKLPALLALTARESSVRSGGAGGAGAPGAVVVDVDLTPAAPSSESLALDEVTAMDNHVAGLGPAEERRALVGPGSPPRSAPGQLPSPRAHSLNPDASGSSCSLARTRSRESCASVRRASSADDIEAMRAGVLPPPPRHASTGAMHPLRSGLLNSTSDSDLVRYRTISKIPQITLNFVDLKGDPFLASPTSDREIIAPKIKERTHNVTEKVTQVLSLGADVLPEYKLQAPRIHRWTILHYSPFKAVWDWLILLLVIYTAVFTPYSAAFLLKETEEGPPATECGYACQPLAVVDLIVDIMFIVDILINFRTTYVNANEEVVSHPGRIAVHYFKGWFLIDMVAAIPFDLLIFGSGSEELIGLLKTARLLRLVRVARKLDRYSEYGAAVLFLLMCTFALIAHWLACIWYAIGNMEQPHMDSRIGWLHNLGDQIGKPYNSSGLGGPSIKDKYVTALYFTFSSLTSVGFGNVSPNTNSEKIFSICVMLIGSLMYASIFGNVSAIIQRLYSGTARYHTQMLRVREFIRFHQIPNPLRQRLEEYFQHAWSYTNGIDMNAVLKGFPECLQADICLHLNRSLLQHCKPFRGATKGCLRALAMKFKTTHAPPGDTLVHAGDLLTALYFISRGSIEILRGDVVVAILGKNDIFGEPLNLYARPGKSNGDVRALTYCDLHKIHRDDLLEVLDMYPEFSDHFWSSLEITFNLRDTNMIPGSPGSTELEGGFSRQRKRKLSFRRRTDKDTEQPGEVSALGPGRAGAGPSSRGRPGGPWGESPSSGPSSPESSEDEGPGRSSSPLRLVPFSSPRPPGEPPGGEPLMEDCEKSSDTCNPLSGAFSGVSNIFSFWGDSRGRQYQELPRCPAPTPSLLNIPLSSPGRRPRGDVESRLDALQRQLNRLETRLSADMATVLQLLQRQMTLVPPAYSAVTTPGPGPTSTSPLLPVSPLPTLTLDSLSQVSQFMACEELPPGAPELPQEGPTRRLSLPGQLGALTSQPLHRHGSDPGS
- TEST PROTOCOL: qHTS Assay for Small Molecule Inhibitors of the Human hERG Channel Activity (AID 588834);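 note: lower thallium flux fluorescence means stronger hERG block; nearly all actives have a fitted effect of over 50% in size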
- SETUP CONDITIONS: U2OS BacMam hERG, FluxOR thallium flux fluorescence; series mostly up to 46.1 µM
Results filed as inconclusive are left out. Activity calls are given as the source filed them. Calls follow the shape of the dose curve; as a rule, active = well fitted inhibition curve with a large enough effect; inconclusive = small, poorly fitted or top-dose-only effect; inactive = flat fitted curve, though single readings scatter.
Bench note: report the call from active, inactive

Sample answers from the record:
[
  {
    "COMPOUND": "C=CCN=C=S",
    "CATEGORY": "inactive"
  },
  {
    "COMPOUND": "C[C@H]1CC[C@]2(NC1)O[C@H]1C[C@H]3[C@@H]4CC[C@H]5C[C@@H](O)CC[C@]5(C)[C@H]4CC[C@]3(C)[C@H]1[C@@H]2C",
    "CATEGORY": "inactive"
  },
  {
    "COMPOUND": "C[N+]1(C)CCN(c2ccccc2)CC1",
    "CATEGORY": "inactive"
  },
  {
    "COMPOUND": "CC(Cc1ccc(OCC(=O)O)cc1)NCC(O)c1cccc(Cl)c1 (configuration not stated)",
    "CATEGORY": "inactive"
  },
  {
    "COMPOUND": "[N-]=[N+]=CC(=O)OCC(N)C(=O)O (configuration not stated)",
    "CATEGORY": "inactive"
  }
]

Problem: In this assay, the call recorded for `Cc1c2ccncc2c(C)c2c1[nH]c1ccccc12` was what?
Solution: active

Problem: Fill in: this test's call for `Cc1ccccc1-n1c(CF)nc2ccc(N)cc2c1=O` is ___
Solution: inactive

Problem: What is the recorded call for this compound in the test? CCC1(c2ccccc2)C(=O)NC(=O)N(C)C1=O (configuration not stated)
Solution: inactive

Problem: How was COc1ccc2c(c1)C13CCCCC1C(C2)N(C)CC3 (configuration not stated) classified in this test?
Solution: inactive

Problem: Hi, do you know how `[O]=[Cr](=[O])([OH])[O][Cr](=[O])(=[O])[OH]` came out in this test?
Solution: inactive

Problem: Answer briefly: the call reported for CNC1(c2ccccc2Cl)CCCCC1=O (configuration not stated) in this assay.
Solution: inactive

Problem: Would you mind telling me which call this test gave `c1csc(C2(N3CCCCC3)CCCCC2)c1` ?
Solution: inactive

Problem: Hello, I am checking results. What call was entered for `C=CCN1CC[C@]23c4c5ccc(O)c4O[C@H]2/C(=N/NC(=O)c2ccccc2)CC[C@@]3(O)[C@H]1C5` ?
Solution: active

###

- MEASURED ON: Parathyroid hormone/parathyroid hormone-related peptide receptor (Homo sapiens)
- TEST PROTOCOL: qHTS for PTHR1 Agonists: Optimization Screen against the NCGC LOPAC library (AID 1347079);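 note: GloSensor cAMP luminescence in HEK-293 GP2 cells expressing human PTHR1 with IBMX; 0% is about no effect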
- SETUP CONDITIONS: HEK293 GP2 PTHR1 GloSensor cAMP luminescence, 1 h; series mostly up to 57.1 µM
The source made the active and inactive calls. Calls come from the whole dose curve; as a rule, active = well fitted activation curve with a large enough effect; inconclusive = small, poorly fitted or top-dose-only effect; inactive = no such curve, though single readings can be large or run the other way.
QUANTITY KIND: outcome

[
  {
    "COMPOUND": "c1ccc2c(c1)[I+]c1ccccc1-2",
    "outcome": "inactive"
  },
  {
    "COMPOUND": "C[N+]1(C)C2CCC1CC(OC(=O)c1c[nH]c3ccccc13)C2 (stereo not drawn)",
    "outcome": "inactive"
  },
  {
    "COMPOUND": "Cc1[nH]c2ccc(O)cc2c1CCN",
    "outcome": "inactive"
  },
  {
    "COMPOUND": "CCCN1CCC[C@@H](c2cccc(O)c2)C1",
    "outcome": "inactive"
  },
  {
    "COMPOUND": "CP(=O)(O)C1=CCNCC1",
    "outcome": "inactive"
  }
]

# outcome measured on Parathyroid hormone/parathyroid hormone-related peptide receptor (Homo sapiens) for item COc1ccc2c(c1)C13CCCCC1C(C2)N(C)CC3 (stereo not drawn) = inactive

Entry `CCCN(CCC)C1Cc2cc(OC)c(OC)cc2C1` under Parathyroid hormone/parathyroid hormone-related peptide receptor (Homo sapiens) had outcome of inactive

// compound `Cc1cc([C@@H]2CCCN2C)on1` , assay Parathyroid hormone/parathyroid hormone-related peptide receptor (Homo sapiens), outcome value: inactive

# value of outcome, Parathyroid hormone/parathyroid hormone-related peptide receptor (Homo sapiens), item Oc1ccc2c3c1O[C@H]1c4oc5ccccc5c4C[C@@]4(O)C(C2)N(CC2CC2)CCC314 (stereo partly drawn) = inactive

outcome of `COc1ccc2c(c1)/C(=C/c1cnc[nH]1)C(=O)N2` , assay on Parathyroid hormone/parathyroid hormone-related peptide receptor (Homo sapiens), is inactive

Field outcome (system: Parathyroid hormone/parathyroid hormone-related peptide receptor (Homo sapiens)) for entry NC(Cc1cc(O)c(O)cc1O)C(=O)O (stereo not drawn) = inactive

// compound `CC(C)[C@@]1(NC(=O)[C@@H]2C[C@@H]3c4cccc5[nH]cc(c45)C[C@H]3N(C)C2)O[C@@]2(O)[C@@H]3CCCN3C(=O)[C@H](Cc3ccccc3)N2C1=O` , assay Parathyroid hormone/parathyroid hormone-related peptide receptor (Homo sapiens), outcome value: inactive
